# EC50 annotations
Target: hS1PR4 (Homo sapiens, UniProt O95977)
Sequence (O95977 whole entry): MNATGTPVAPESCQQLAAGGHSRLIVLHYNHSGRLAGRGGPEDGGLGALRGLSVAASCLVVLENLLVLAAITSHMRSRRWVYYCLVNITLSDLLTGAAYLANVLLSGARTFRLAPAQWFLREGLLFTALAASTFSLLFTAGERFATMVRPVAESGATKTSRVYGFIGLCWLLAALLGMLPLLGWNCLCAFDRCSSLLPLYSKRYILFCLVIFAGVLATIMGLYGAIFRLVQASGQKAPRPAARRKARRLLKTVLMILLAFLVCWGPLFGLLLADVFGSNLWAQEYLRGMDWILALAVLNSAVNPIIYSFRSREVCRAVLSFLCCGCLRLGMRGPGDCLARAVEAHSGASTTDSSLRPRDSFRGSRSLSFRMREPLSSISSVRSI
Experiment: b-arrestin recruitment assay
Settings: b-arrestin recruitment, hS1PR4; EC50 [95% confidence interval] (n)
Give just the numeric value; nM need not be written.

Solved entries:
[[record]]
compound = "CCCCCCCCc1ccc(CC[C@](N)(CO)COP(=O)(O)O)cc1"
property_measured = "EC50"
quantitative_result = 0.76

[[record]]
compound = "CC(C)Oc1ccc(-c2nc(-c3cccc4c3CC[C@@H]4NCCO)no2)cc1C#N"
property_measured = "EC50"
quantitative_result = 117

[[record]]
compound = "CC(C)Cc1ccc(-c2nc(-c3ccc(CN4CC(C(=O)O)C4)c(F)c3)no2)cc1"
property_measured = "EC50"
quantitative_result = 3.2


API: the following record is the query input.
Form field: reported EC50 of CCCCCCCCCCCCC/C=C/[C@@H](O)[C@@H](N)COP(=O)(O)O [Compound S1P, sphingosine-1-phosphate] 0.99
